tested_system: UniProt P22303
Sequence (P22303 whole entry): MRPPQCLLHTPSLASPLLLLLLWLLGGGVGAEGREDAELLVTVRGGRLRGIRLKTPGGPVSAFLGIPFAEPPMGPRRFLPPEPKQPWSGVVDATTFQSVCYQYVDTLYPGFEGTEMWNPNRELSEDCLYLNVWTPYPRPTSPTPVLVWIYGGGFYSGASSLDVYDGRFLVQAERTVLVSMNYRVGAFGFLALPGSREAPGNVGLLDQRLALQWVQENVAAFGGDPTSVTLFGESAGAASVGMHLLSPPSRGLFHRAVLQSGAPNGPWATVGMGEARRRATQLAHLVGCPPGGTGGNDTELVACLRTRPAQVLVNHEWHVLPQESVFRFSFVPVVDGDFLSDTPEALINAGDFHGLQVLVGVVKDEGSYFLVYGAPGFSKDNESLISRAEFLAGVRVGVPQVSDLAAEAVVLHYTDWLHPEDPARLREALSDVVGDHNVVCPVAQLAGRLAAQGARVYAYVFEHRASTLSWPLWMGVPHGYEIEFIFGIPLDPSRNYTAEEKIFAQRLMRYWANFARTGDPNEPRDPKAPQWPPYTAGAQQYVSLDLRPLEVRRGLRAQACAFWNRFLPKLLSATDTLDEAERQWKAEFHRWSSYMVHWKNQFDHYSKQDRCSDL
measurement_notes: Inhibition of recombinant human AChE using acetylthiocholine as substrate by UV-visible absorption method
property_label: IC50 (nM)
Please reply with the bare figure in nM and do not write the unit itself.

# return recorded IC50 for input `COc1ccc(CNC(=O)C2CCN(C(=O)c3ccccc3)CC2)cc1OC`
4.11

----------
tested_system: Amine oxidase [flavin-containing] B (Homo sapiens, UniProt P27338)
Sequence (P27338 whole entry): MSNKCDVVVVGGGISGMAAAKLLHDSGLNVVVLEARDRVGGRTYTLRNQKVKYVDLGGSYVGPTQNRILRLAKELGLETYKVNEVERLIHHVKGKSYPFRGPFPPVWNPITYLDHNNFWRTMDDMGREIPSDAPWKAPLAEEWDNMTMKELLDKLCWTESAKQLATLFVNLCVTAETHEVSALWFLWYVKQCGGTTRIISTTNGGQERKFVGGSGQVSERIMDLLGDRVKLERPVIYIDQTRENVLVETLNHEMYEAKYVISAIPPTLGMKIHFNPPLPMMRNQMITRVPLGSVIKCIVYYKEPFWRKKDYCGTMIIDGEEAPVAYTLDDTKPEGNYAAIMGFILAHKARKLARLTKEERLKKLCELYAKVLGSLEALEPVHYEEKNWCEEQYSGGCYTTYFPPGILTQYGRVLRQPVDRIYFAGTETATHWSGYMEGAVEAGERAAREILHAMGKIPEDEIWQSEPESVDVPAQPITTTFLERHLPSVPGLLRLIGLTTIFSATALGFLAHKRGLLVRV
measurement_notes: Mixed type inhibition of MAOB (unknown origin)
property_label: pIC50
Lab note — pIC50 values are minus log10 of concentrations in M.

Provide pIC50, tested on Amine oxidase [flavin-containing] B (Homo sapiens, UniProt P27338), for `C#CCN(C)Cc1ccc(O)c2ncccc12` .
5.82
